The measurements presented in this section are drawn from PubChem BioAssay (NCI).

# Test system: HL-60(TB) leukemia
# testProtocol: NCI-60 one-dose screen, 48 h (100 = growth as untreated, 0 = no growth, -100 = all killed)
# experimentalSetup: 10 µM unless noted
About 83,000 compounds went through this panel and 20% of them were active in at least one assay; those are over-represented in the sample as a whole.
Please provide measured growth for the entries that follow.
Kindly provide the numeric value in % only, without the unit symbol.

Summary line: NS(=O)(=O)c1ccc(Nc2nc(SCC(=O)c3ccc(F)cc3)nc3ccccc23)cc1 , HL-60(TB) leukemia, reported growth = 63.7

Summary line: CN(C)c1ccc(/C=C/C(=O)c2ccc(NC(=O)CN3C(=O)NC(C)(c4ccccc4)C3=O)cc2)cc1 (stereo not drawn) , HL-60(TB) leukemia, reported growth = 47.5

Summary line: COc1ccc(C(=O)/C=C/c2ccc(OCc3ccccc3)c(OC)c2)cc1OC , HL-60(TB) leukemia, reported growth = 5.55

Summary line: COc1ccc(-c2cc(-c3cc(C(=O)c4ccccc4)n4ccc(C)cc34)nc(N)c2C#N)cc1 , HL-60(TB) leukemia, reported growth = 99.7

Summary line: CNS(=O)(=O)N1CCc2c(Br)c3c(c(OC)c2C1CCc1ccccc1)OCO3 (stereo not drawn) , HL-60(TB) leukemia, reported growth = -36.1

Summary line: COc1ccccc1C(=O)NNC(=O)CSc1nc2c(c(=O)[nH]1)CCCC2 , HL-60(TB) leukemia, reported growth = 100

Summary line: C=CCn1c(O)c(N=Nc2nc(-c3cc4ccccc4oc3=O)cs2)c2ccccc21 , HL-60(TB) leukemia, reported growth = 111

Summary line: N#Cc1c(NC(=O)c2ccc(C(F)(F)F)cc2)sc2c1CCC(=O)C2 , HL-60(TB) leukemia, reported growth = 7.73

Summary line: CCOC(=O)C1=C(N)N(c2ccccc2)C2=C(C(=O)CC(C)(C)C2)C1c1ccccc1Cl (stereo not drawn) , HL-60(TB) leukemia, reported growth = -23

Summary line: COc1ccccc1-n1cc(C#N)c(N)c1C(=O)c1ccc(Cl)cc1Cl , HL-60(TB) leukemia, reported growth = 1.26

Summary line: C/C(=N/O)c1ccc(NC(=O)CSc2nnc(-c3ccc4nc(-c5ccc(Cl)cc5)[nH]c4c3)o2)cc1 , HL-60(TB) leukemia, reported growth = 81.8

Summary line: CN1C(=O)/C(=C\C(=O)c2cc3ccccc3oc2=O)c2ccccc21 , HL-60(TB) leukemia, reported growth = 79.3

Summary line: CC(=O)OC[C@@]1(C)C2CC[C@]3(C)C(CC=C4C5CC(C)(C)CC[C@]5(C(=O)Nc5ccccc5)CC[C@]43C)[C@@]2(C)C[C@@H](OC(C)=O)[C@@H]1OC(C)=O (stereo partly drawn) , HL-60(TB) leukemia, reported growth = 22.6

Summary line: Cn1cc(-c2cc3nc(-c4cn(C)c5ncccc45)cc(N)n3n2)c2cc(Cl)ccc21 , HL-60(TB) leukemia, reported growth = -66.6

Summary line: CCOc1ccc(-c2cc(-c3cc(C(C)C)c(O)cc3C)nn2-c2ccc(S(N)(=O)=O)cc2)cc1 , HL-60(TB) leukemia, reported growth = 9.77

Summary line: O=C(c1ccc(Cl)cc1)C1[C@H](c2ccc(Br)cc2)[C@@H](c2ccccc2)NC12C(=O)Nc1ccc(Cl)cc12 (stereo partly drawn) , HL-60(TB) leukemia, reported growth = -45.2

Summary line: Cc1noc2c(Cc3ccccc3)nn(CC(=O)N/N=C/c3ccc(Br)cc3)c(=O)c12 , HL-60(TB) leukemia, reported growth = 100

Summary line: CCCCCCCCCCCCCCCCCCCC(=O)NCCc1c[nH]c2ccc(OC(=O)CCCC(=O)OCCOOCCOOCCOOCCOOCCOOCCOOCCOOCCOOCCOOCCOOCCOOCCOC)cc12 , HL-60(TB) leukemia, reported growth = -29.3
